tested on: ACHN; assay: Growth inhibition of human ACHN cells at 3 uM after 48 hrs by SRB assay; values are per cent of control
Binarize growth, % of control at 3 µM at 50%; below is met, at or above is not met.

Examples from the recorded data:
C=CC[N+](C)(C)CCN(C)S(=O)(=O)CCCCCCCCCCCCCC    met
CCCCCCCCCCCCCCCCS(=O)(=O)NCC(C)(C)C[N+](C)(C)CC    not met
C=CC[N+](C)(C)CCN(C)S(=O)(=O)CCCCCCCCCCCCCCCC    not met
CCCCCCCCCCCCCCCCS(=O)(=O)N(C)CC[N+](CC)(CC)CC    met

Would you kindly look at the next entry?
Is it true that growth, % of control at 3 µM reported for CCCCCCCCCCCCCCS(=O)(=O)N(C)CC[N+](C)(CC)CC is less than 50%? not met
